compounds and their reported drug sensitivity score
Test system: U2OS
experimentDescription: drug sensitivity score (DSS) for viability; higher = more toxic; extreme values may be limits of the assay
assayConditions: 72 h
When you answer, write just the number.

## Task Which drug sensitivity score value belongs to CC[C@H](C)[C@@H]([C@@H](CC(=O)N1CCC[C@H]1[C@H](OC)[C@@H](C)C(=O)N[C@@H](Cc1ccccc1)c1nccs1)OC)N(C)C(=O)[C@@H](NC(=O)[C@H](C(C)C)N(C)C)C(C)C [dolastatin-10] ?
## Result 40

## Task Which drug sensitivity score value belongs to COc1ccccc1N1CCN(CCCCNC(=O)c2ccc3ccccc3c2)CC1 [BP-897] ?
## Result 0

## Task Which drug sensitivity score value belongs to O=C(O)/C=C1\CCCc2ccccc2[C@H]1O (racemic) [NCS-382] ?
## Result 0

// moving on: another record for drug sensitivity score
## Task Which drug sensitivity score value belongs to O=S(=O)(O)c1cc(O)ccc1O [etamsylate] ?
## Result 0

* * *

Tested on: A549-ACE2
experimentDescription: drug-induced phospholipidosis relative to tamoxifen; higher = more phospholipidosis
assayConditions: 0.833333 µM; 48 h
readoutType: drug-induced phospholipidosis (%)
Your answer should be a plain number; it is taken to be in %.

Sample records with drug-induced phospholipidosis:
## Task Which drug-induced phospholipidosis value belongs to O=C(NCc1ccccc1)c1csc(Nc2ccncn2)n1 ?
## Result -3.9

## Task Which drug-induced phospholipidosis value belongs to O=C(c1ccc(-c2ccc(Cl)cc2)o1)N(Cc1ccccn1)c1ccc(N2CCNCC2)cc1 ?
## Result 4.08

More entries:
## Task Which drug-induced phospholipidosis value belongs to CN1C(=O)/C(=C2/C(=O)Nc3ccccc32)c2ccccc21 ?
## Result -2.93

## Task Which drug-induced phospholipidosis value belongs to O=C(NC1CCN(CCCCC2(C(=O)NCC(F)(F)F)c3ccccc3-c3ccccc32)CC1)c1ccccc1-c1ccc(C(F)(F)F)cc1 [lomitapide] ?
## Result 36

## Task Which drug-induced phospholipidosis value belongs to O=C1/C(=C/c2ccccc2)C[C@@]2(O)[C@H]3Cc4ccc(O)c5c4[C@@]2(CCN3CC2CC2)[C@H]1O5 ?
## Result 0.51

* * *

compounds and their reported relative viability EC50
Test system: Calu-3
experimentDescription: relative viability EC50 (midpoint between 100% and the lowest measured viability); higher = less toxic
assayConditions: 72 h

## Task Given the entry CCC(Cc1c(I)cc(I)c(N)c1I)C(=O)O (stereo unspecified) , what relative viability EC50 was observed with Calu-3?
## Result > 10 µM

## Task Given the entry NC(=O)C1CCCc2c1[nH]c1ccc(Cl)cc21 (stereo unspecified) , what relative viability EC50 was observed with Calu-3?
## Result > 10 µM

## Task Given the entry C=CCN1C[C@H](C(=O)N(CCCN(C)C)C(=O)NCC)C[C@@H]2c3cccc4[nH]cc(c34)C[C@H]21 , what relative viability EC50 was observed with Calu-3?
## Result > 10 µM

## Task Given the entry C=C1CC[C@H](O)C/C1=C/C=C1\CCC[C@]2(C)[C@@H]([C@H](C)CCCC(C)(C)O)CC[C@@H]12 , what relative viability EC50 was observed with Calu-3?
## Result > 10 µM

## Task Given the entry CN(C)CCCSc1ccccc1NC(=O)/C=C/c1ccccc1 , what relative viability EC50 was observed with Calu-3?
## Result > 10 µM

## Task Given the entry CCc1c2c(nc3ccc(O)cc13)-c1cc3c(c(=O)n1C2)COC(=O)[C@]3(O)CC , what relative viability EC50 was observed with Calu-3?
## Result 0.0579 µM

## Task Given the entry COc1cc2ncnc(Nc3cccc(Cl)c3F)c2cc1OC(=O)N1CCN(C)C[C@H]1C , what relative viability EC50 was observed with Calu-3?
## Result 0.442 µM

## Task Given the entry COc1cc(C(C)=O)ccc1OCCCN1CCC(c2noc3cc(F)ccc23)CC1 , what relative viability EC50 was observed with Calu-3?
## Result > 10 µM

More entries:
## Task Given the entry C=CC(=O)N1CCC[C@@H](n2nc(-c3ccc(Oc4ccccc4)cc3)c3c(N)ncnc32)C1 , what relative viability EC50 was observed with Calu-3?
## Result > 10 µM

## Task Given the entry NC1CCN(c2cccc(Cl)n2)CC1 , what relative viability EC50 was observed with Calu-3?
## Result > 10 µM

## Task Given the entry CCCCCCCCCCCCCCCC[n+]1ccn(Cc2ccccc2)c1C , what relative viability EC50 was observed with Calu-3?
## Result 1.64 µM

## Task Given the entry O=C(O)c1cnn(-c2nc3cc(OC(F)(F)F)c(Cl)cc3[nH]2)c1 , what relative viability EC50 was observed with Calu-3?
## Result > 10 µM
